Where do these numbers come from? They come from patent US7078556B2.

Here's what we have: MIC numbers for Staphylococcus aureus GC 4541.
// units = µg/mL; emit number, no label

[
  {
    "COMPOUND": "CCCC(=O)O[C@H]1c2cc(C)cc(O)c2C(O)=C2C(=O)[C@H]3C=C[C@]21Cc1cc(O)c(C(=O)c2c(O)ccc(O)c2C(=O)OC)c(O)c13 [Example 6, Cyan-416 B butyrate]",
    "MIC (µg/mL)": 8
  },
  {
    "COMPOUND": "COC(=O)c1c(O)ccc(O)c1C(=O)c1c(O)cc2c(c1O)[C@@H]1C=C[C@]3(C2)C(=C(O)c2c(O)cc(C)cc2[C@@H]3OC(=O)C(C)C)C1=O [Example 7, Cyan-416 B isobutyrate]",
    "MIC (µg/mL)": 2
  },
  {
    "COMPOUND": "COC(=O)c1c(O)ccc(O)c1C(=O)c1c(O)cc2c(c1O)[C@@H]1C=C[C@]3(C2)C(=C(O)c2c(O)cc(C)cc2[C@@H]3OC(C)=O)C1=O",
    "MIC (µg/mL)": 16
  },
  {
    "COMPOUND": "CCCCCC(=O)O[C@H]1c2cc(C)cc(O)c2C(O)=C2C(=O)[C@H]3C=C[C@]21Cc1cc(O)c(C(=O)c2c(O)ccc(O)c2C(=O)OC)c(O)c13 [Example 9, Cyan-416 B hexanoate]",
    "MIC (µg/mL)": 4
  }
]

# ---- query compound ----
// query Lookup: MIC / Staphylococcus aureus GC 4541 / CCCCC(=O)O[C@H]1c2cc(C)cc(O)c2C(O)=C2C(=O)[C@H]3C=C[C@]21Cc1cc(O)c(C(=O)c2c(O)ccc(O)c2C(=O)OC)c(O)c13 [Example 8, Cyan-416 B pentanoate]
// result 4
